molecular target: 5-HT2B receptor (Homo sapiens, UniProt P41595); construct: expressed in transfected cells; host or cells: CHO-K1; assay: Serotonin receptor binding, [3H] LSD, CHO-K1 membranes; details: read-out: 5-HT2B KI
Sequence (P41595 whole entry): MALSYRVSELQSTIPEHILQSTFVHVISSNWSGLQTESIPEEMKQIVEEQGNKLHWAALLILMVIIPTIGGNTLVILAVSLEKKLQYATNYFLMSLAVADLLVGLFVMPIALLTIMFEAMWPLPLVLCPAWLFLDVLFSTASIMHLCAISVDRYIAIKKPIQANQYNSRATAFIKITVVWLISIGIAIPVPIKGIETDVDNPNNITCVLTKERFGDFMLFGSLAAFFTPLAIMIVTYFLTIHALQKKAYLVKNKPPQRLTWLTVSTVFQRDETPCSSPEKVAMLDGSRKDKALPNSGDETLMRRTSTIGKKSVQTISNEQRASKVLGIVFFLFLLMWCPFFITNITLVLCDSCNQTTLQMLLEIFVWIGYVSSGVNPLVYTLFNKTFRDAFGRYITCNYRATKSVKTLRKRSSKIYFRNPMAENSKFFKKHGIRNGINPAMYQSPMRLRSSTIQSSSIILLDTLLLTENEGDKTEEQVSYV
pKi values, listed per item
Answer as the number alone; pKi is minus log10 of concentration in mol/L.

The examples below pair each entry with its known result.
moleculesmiles=COc1ccc2[nH]cc(CCNC(=O)c3ccc(=O)oc3)c2c1 measurementtype=pKi result=5.72
moleculesmiles=COc1ccc2[nH]cc(CCNC(=O)c3cc(=O)c(OC)co3)c2c1 measurementtype=pKi result=5.95
moleculesmiles=COc1ccc2[nH]cc(CCNC(=O)c3cc(=O)cc(C(=O)O)o3)c2c1 measurementtype=pKi result=5.88

Input line: Note down pKi recorded for COc1ccc2[nH]cc(CCNC(=O)c3cc(=O)cco3)c2c1
Output line: 5.36

All values here come from patent US9101613B2.
